Cited source for all entries: ChEMBL document CHEMBL1159086

test: Displacement of [3H]ditolylguanidine from sigma 2 opioid receptor in rat liver homogenate; format: tissue-based
MEASURED_ATTRIBUTE: pKi
Give bare numbers, as −log10 of the molar value.

Observe how each entry below is paired with its result.
compound="COc1ccc2cc(C(C)CCN(C)Cc3ccccc3)ccc2c1 (racemic)" quantitative_result=6.77
compound="COc1ccc2cc(C(C)(O)CCN(C)Cc3ccccc3)ccc2c1 (racemic)" quantitative_result=6.03
compound="CN(CCC(C)(O)c1ccc(-c2ccccc2)cc1)Cc1ccccc1 (racemic)" quantitative_result=6.67
compound="COc1ccc2cc(C(C)CCN3CCCCC3)ccc2c1 (racemic)" quantitative_result=6.77

Working through the 5 compounds below one at a time, give pKi for each.
1. COc1ccc2cc(/C(C)=C/CN(C)C)ccc2c1
2. COc1ccc2cc(C(C)CCN(C)C)ccc2c1 (racemic)
3. COc1ccc2cc(/C(C)=C/CN3CCCCC3)ccc2c1
4. COc1ccc2cc(/C(C)=C/CN(C)Cc3ccccc3)ccc2c1
5. CC(CCN(C)Cc1ccccc1)c1ccc(-c2ccccc2)cc1 (racemic)

Result:
6.15
5.81
6.87
6.25
6.67

Working through the 2 compounds below one at a time, give pKi for each.
1. C/C(=C\CN(C)Cc1ccccc1)c1ccc(-c2ccccc2)cc1
2. COc1ccc2cc(C(C)(O)CCN3CCCCC3)ccc2c1 (configuration not stated)

Result:
[6.51, 6.81]

----------
experiment: Selectivity for rat liver sigma 1 opioid receptor over rat liver sigma 2 opioid receptor
MEASURED_ATTRIBUTE: selectivity ratio
Numbers only.

Observe how each entry below is paired with its result.
compound="COc1ccc2cc(C(C)(O)CCN(C)Cc3ccccc3)ccc2c1 (racemic)" measured_attribute="selectivity ratio" quantitative_result=156
compound="COc1ccc2cc(C(C)CCN(C)C)ccc2c1 (racemic)" measured_attribute="selectivity ratio" quantitative_result=108

Working through the 8 compounds below one at a time, give selectivity ratio for each.
1. COc1ccc2cc(C(C)(O)CCN3CCCCC3)ccc2c1 (configuration not stated)
2. CC(CCN(C)Cc1ccccc1)c1ccc(-c2ccccc2)cc1 (racemic)
3. COc1ccc2cc(/C(C)=C/CN(C)C)ccc2c1
4. COc1ccc2cc(/C(C)=C/CN(C)Cc3ccccc3)ccc2c1
5. COc1ccc2cc(C(C)CCN(C)Cc3ccccc3)ccc2c1 (racemic)
6. COc1ccc2cc(/C(C)=C/CN3CCCCC3)ccc2c1
7. CN(CCC(C)(O)c1ccc(-c2ccccc2)cc1)Cc1ccccc1 (racemic)
8. C/C(=C\CN(C)Cc1ccccc1)c1ccc(-c2ccccc2)cc1

Result:
15
60
26
41
73
31
90
74

Q: Dear colleague, I am looking for the recorded selectivity ratio of the following compound: COc1ccc2cc(C(C)CCN3CCCCC3)ccc2c1 (racemic)
Result: 131

----------
molecular target: Kappa-type opioid receptor (Cavia porcellus)
Sequence (P41144 whole entry): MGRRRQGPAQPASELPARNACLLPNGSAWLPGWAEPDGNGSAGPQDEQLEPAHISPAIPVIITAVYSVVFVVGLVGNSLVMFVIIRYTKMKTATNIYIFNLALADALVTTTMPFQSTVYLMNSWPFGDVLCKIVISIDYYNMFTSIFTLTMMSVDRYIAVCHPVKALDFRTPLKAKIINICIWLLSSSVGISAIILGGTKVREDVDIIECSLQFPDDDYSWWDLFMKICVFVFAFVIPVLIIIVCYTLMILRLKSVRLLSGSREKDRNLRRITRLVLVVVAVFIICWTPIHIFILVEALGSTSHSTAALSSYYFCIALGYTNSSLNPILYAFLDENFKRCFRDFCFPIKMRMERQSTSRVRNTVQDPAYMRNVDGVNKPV
MEASURED_ATTRIBUTE: pKi
Answers are plain numbers, as −log10 of the molar value.

Q: Dear colleague, I am looking for the recorded pKi of the following compound: COc1ccc2cc(C(C)CCN(C)Cc3ccccc3)ccc2c1 (racemic)
Result: 6.08

----------
biological target: Sigma non-opioid intracellular receptor 1 (Rattus norvegicus, UniProt Q9R0C9); test: Displacement of [3H](+)-pentazocine from sigma 1 opioid receptor in rat liver homogenate
Sequence (Q9R0C9 whole entry): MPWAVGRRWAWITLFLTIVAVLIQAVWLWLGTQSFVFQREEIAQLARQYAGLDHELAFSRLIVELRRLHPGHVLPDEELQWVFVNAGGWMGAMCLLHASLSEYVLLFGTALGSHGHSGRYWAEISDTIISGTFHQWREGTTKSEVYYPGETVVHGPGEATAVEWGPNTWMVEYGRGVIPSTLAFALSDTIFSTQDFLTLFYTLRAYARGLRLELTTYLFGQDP
pKi: −log10 of the molar value.
Parameter threshold = 8. Response is YES when pKi meets or exceeds it, else NO.

Worked set:
molecule="COc1ccc2cc(C(C)(O)CCN(C)C)ccc2c1 (racemic)" target="Sigma non-opioid intracellular receptor 1 (Rattus norvegicus, UniProt Q9R0C9)" class_name=NO
molecule=COc1ccc2cc(/C(C)=C/CN3CCCCC3)ccc2c1 target="Sigma non-opioid intracellular receptor 1 (Rattus norvegicus, UniProt Q9R0C9)" class_name=YES

Q: Does COc1ccc2cc(/C(C)=C/CN(C)C)ccc2c1 have a reported pKi of at least 8?
Result: NO

Q: Another molecule to check: COc1ccc2cc(C(C)CCN3CCCCC3)ccc2c1 (racemic)
Result: YES

Q: Another molecule to check: COc1ccc2cc(C(C)CCN(C)Cc3ccccc3)ccc2c1 (racemic)
Result: YES

Q: Another molecule to check: CN(CCC(C)(O)c1ccc(-c2ccccc2)cc1)Cc1ccccc1 (racemic)
Result: YES

Q: Another molecule to check: C/C(=C\CN(C)Cc1ccccc1)c1ccc(-c2ccccc2)cc1
Result: YES

Q: Another molecule to check: CC(CCN(C)Cc1ccccc1)c1ccc(-c2ccccc2)cc1 (racemic)
Result: YES
